Source of measurements: ChEMBL document CHEMBL1681728

Overview of reported pIC50 across a group of compounds:
Test system: Plasmodium falciparum
Test Method Notes: Antimalarial activity against chloroquine-sensitive Plasmodium falciparum D6 assessed as inhibition of [3H]hypoxanthine incorporation after 96 hrs by microtiter plate scintillation counting
Format: functional, organism-based
pIC50: −log10 of the molar value.
Parameter: pIC50

[[record]]
smi = "CC[C@H]1OC(=O)[C@H](C)[C@@H](O[C@H]2C[C@@](C)(OC)[C@@H](O)[C@H](C)O2)[C@H](C)[C@@H](O[C@@H]2O[C@H](C)C[C@H](N(C)C)[C@H]2O)[C@](C)(O)C[C@@H](C)CN(CCCNC(=S)Nc2ccc([N+](=O)[O-])cc2)[C@H](C)[C@@H](O)[C@]1(C)O"
parameter = "pIC50"
reported_result = 6.99

[[record]]
smi = "CC[C@H]1OC(=O)[C@H](C)[C@@H](O[C@H]2C[C@@](C)(OC)[C@@H](O)[C@H](C)O2)[C@H](C)[C@@H](O[C@@H]2O[C@H](C)C[C@H](N(C)C)[C@H]2O)[C@](C)(O)C[C@@H](C)CN(CCCNC(=S)NCCCSC)[C@H](C)[C@@H](O)[C@]1(C)O"
parameter = "pIC50"
reported_result = 6.05

[[record]]
smi = "CC[C@H]1OC(=O)[C@H](C)[C@@H](O[C@H]2C[C@@](C)(OC)[C@@H](O)[C@H](C)O2)[C@H](C)[C@@H](O[C@@H]2O[C@H](C)C[C@H](N(C)C)[C@H]2O)[C@](C)(O)C[C@@H](C)CN(CCCNC(=S)Nc2ccc([N+](=O)[O-])cc2OC)[C@H](C)[C@@H](O)[C@]1(C)O"
parameter = "pIC50"
reported_result = 7.13

[[record]]
smi = "CC[C@H]1OC(=O)[C@H](C)[C@@H](O[C@H]2C[C@@](C)(OC)[C@@H](O)[C@H](C)O2)[C@H](C)[C@@H](O[C@@H]2O[C@H](C)C[C@H](N(C)C)[C@H]2O)[C@](C)(O)C[C@@H](C)CN(CCCNC(=O)Nc2c(C)noc2-c2ccccc2)[C@H](C)[C@@H](O)[C@]1(C)O"
parameter = "pIC50"
reported_result = 6.03

